# Tested on: P. falciparum (3D7)
# METHOD_SUMMARY: P. falciparum (3D7) culture growth inhibition, 72 h
# Assay type: cell-based, Plasmodium falciparum
# ASSAY_CONTEXT: Plasmodium falciparum, read-out: Pf3D7 IC50(72h); P. falciparum 3D7, 72 h
MEASURED_ENDPOINT: IC50 (nM)
Give your result in nM as a bare value.

Sample Nc1ncnc2c1c(OC(F)F)nn2[C@@H]1O[C@H](COS(N)(=O)=O)[C@@H](O)[C@H]1O [ML901] — what was its IC50?
2

Sample C[C@H]1[C@@H](O)O[C@@H]2O[C@@]3(C)CC[C@H]4[C@H](C)CC[C@@H]1[C@@]24OO3 [DHA, Dihydroartemisinin] — what was its IC50?
2.9

---

# TARGET: NEDD8-activating enzyme (NAE) (Homo sapiens, UniProt Q8TBC4)
# Sequence (Q8TBC4 whole entry): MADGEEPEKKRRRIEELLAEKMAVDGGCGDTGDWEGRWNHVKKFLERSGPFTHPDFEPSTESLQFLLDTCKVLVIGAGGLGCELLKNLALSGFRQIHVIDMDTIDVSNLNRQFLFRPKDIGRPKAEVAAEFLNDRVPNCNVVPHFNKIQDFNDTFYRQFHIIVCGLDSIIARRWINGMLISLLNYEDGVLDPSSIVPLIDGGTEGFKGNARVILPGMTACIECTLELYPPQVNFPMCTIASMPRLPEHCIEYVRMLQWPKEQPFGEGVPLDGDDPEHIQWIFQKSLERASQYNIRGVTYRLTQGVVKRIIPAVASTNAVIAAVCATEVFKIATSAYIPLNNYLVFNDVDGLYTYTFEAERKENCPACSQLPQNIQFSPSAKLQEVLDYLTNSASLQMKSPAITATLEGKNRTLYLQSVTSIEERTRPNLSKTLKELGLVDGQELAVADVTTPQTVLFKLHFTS
# Sequence (Q13564 whole entry partner): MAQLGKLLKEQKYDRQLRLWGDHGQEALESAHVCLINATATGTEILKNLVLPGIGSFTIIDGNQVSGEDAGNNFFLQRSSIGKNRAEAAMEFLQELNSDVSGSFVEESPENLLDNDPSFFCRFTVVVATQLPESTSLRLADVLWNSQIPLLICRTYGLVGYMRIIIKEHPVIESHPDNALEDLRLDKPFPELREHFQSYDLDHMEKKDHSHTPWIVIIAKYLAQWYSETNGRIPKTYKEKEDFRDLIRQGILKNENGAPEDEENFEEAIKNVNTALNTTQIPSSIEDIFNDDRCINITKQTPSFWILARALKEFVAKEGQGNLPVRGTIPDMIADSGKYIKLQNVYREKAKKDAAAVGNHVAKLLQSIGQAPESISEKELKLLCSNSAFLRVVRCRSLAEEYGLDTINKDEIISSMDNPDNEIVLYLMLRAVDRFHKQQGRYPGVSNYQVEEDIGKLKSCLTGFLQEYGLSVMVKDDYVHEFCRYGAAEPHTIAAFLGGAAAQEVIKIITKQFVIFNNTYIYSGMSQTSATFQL
MEASURED_ENDPOINT: IC50

Sample Nc1ncnc2c1c(OC(F)F)nn2[C@@H]1O[C@H](COS(N)(=O)=O)[C@@H](O)[C@H]1O — what was its IC50?
> 1000 nM

---

# METHOD_SUMMARY: Solubility
# Format: physicochemical
MEASURED_ENDPOINT: solubility

Sample Nc1ncnc2c1c(OC(F)F)nn2[C@@H]1O[C@H](COS(N)(=O)=O)[C@@H](O)[C@H]1O — what was its solubility?
> 200 µM

---

Target chain: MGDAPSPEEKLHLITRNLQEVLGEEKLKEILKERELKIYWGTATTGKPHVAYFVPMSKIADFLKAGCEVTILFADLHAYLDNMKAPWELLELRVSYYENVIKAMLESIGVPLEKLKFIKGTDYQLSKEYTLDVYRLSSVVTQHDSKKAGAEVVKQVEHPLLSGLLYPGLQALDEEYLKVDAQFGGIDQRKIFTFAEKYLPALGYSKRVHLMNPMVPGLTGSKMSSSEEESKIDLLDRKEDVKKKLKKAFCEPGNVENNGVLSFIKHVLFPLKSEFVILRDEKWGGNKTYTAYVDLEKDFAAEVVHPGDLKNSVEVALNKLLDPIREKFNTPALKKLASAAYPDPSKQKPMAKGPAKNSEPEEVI
MEASURED_ENDPOINT: IC50 (µM)
Give your result in µM as a bare value.

Sample Nc1ncnc2c1c(OC(F)F)nn2C1OC(COS(=O)(=O)NC(=O)C(N)Cc2ccc(O)cc2)C(O)C1O (centres unmarked) — what was its IC50?
23

Recorded values, source paper PMC7613620.
